The molecules listed here are annotated with their SCD1 % Max Inhibition.
- test.system: SCD1 (Homo sapiens, UniProt O00767)
- Construct: host or cells: S. cerevisiae ole1Δ strain (W303 pdr1Δ pdr3Δ background), plasmid pRS316 with TDH3 promoter and CYC1 terminator
- Sequence (O00767 1-359): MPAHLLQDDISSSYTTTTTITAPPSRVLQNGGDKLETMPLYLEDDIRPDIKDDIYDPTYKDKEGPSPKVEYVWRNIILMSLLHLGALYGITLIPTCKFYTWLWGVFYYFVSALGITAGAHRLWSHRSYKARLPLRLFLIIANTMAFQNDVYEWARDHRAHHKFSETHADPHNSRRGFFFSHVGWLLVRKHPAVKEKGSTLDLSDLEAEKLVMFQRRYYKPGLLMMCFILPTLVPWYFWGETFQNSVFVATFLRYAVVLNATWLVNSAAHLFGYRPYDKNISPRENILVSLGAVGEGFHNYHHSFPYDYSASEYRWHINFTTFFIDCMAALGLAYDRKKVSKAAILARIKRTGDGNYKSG
- assay.protocol: Growth inhibition of humanized yeast strain expressing SCD1 as sole desaturase
- Type: cell-based
- conditions.used: humanized yeast strain expressing SCD1
Give just the numeric value; % need not be written.

In the examples that follow, each entry is paired with its recorded SCD1 % Max Inhibition.
molecule	test.system	u	recorded.value
CCNCc1nc(-c2ccc3c(c2)N(CC)C(=O)CO3)no1	SCD1 (Homo sapiens, UniProt O00767)	%	68.84
N#Cc1cccc(N2CC(C(=O)N3CCC(c4nc(N5CC6(COC6)C5)no4)CC3)CC2=O)c1 (stereo not shown)	SCD1 (Homo sapiens, UniProt O00767)	%	59.7
CCOc1ccc(-c2noc(C3CCN(C(=O)CN4Cc5cc(F)ccc5C4=O)CC3)n2)cc1OC	SCD1 (Homo sapiens, UniProt O00767)	%	107.22

Now look at this entry.
Documented SCD1 % Max Inhibition of Cc1ccc(-c2noc(C3CCN(C(=O)[C@H]4CC(=O)N(c5ccc(C)c(C)c5)C4)CC3)n2)cc1 (single isomer, unassigned) : 2.37

----------
The compounds listed here are annotated with their SCD5 % Max Inhibition.
- test.system: SCD5 (Homo sapiens, UniProt Q86SK9)
- Construct: host or cells: S. cerevisiae ole1Δ strain (W303 pdr1Δ pdr3Δ background), plasmid pRS316 with TDH3 promoter and CYC1 terminator
- Sequence (Q86SK9 1-330): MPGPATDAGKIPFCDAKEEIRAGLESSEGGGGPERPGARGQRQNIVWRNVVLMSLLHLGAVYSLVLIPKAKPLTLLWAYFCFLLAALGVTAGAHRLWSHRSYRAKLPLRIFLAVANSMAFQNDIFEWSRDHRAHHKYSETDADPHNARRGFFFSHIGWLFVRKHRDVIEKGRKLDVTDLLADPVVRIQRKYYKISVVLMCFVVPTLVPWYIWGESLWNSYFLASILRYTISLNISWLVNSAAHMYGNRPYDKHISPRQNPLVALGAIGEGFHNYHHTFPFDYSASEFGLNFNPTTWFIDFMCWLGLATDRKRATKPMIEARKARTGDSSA
- assay.protocol: Growth inhibition of humanized yeast strain expressing SCD5 as sole desaturase
- Assay type: cell-based
- conditions.used: humanized yeast strain expressing SCD5
Give just the numeric value; % need not be written.

In the examples that follow, each entry is paired with its recorded SCD5 % Max Inhibition.
compound	SCD5 % Max Inhibition [%]
CC(C)n1ncc2ccc(-c3noc(C4CCN(C(=O)c5ccccc5Cl)CC4)n3)cc21	2.2
COc1ccc(-c2noc(C3CCN(C(=O)C(C)(C)NC(=O)c4ccccc4)CC3)n2)cc1OC	74.10
Cc1nn(C)c2cc(-c3noc(C4CCN(C(=O)Oc5ccccc5)CC4)n3)ccc12	51.9
CCOc1ccc(-c2noc(N3CCC(C(=O)N4CCO[C@H](c5ccccc5)C4)CC3)n2)cc1OC	25.15
O=C(NCC(=O)N1CCC(c2nc(-c3ccc4c(c3)OC(F)(F)O4)no2)CC1)c1ccccc1	89.75
COc1cccc(-c2noc(C3CC(=O)N(c4ccc(C)c(C)c4)C3)n2)c1 (centres unmarked) [Compound 490]	50.39

Tested on SCD5 (Homo sapiens, UniProt Q86SK9): Cc1nn(C)c2ccc(-c3noc(C4CCN(C(=O)c5ccc(C(C)C)cc5)CC4)n3)cc12 . Observed SCD5 % Max Inhibition: 9.2

Tested on SCD5 (Homo sapiens, UniProt Q86SK9): CCOc1ccc(-c2noc(C3CCN(C(=O)CN4Cc5c(F)cccc5C4=O)CC3)n2)cc1OC . Observed SCD5 % Max Inhibition: 77.96

----------
- test.system: SCD5 (Homo sapiens, UniProt Q86SK9)
- Construct: host or cells: S. cerevisiae ole1Δ strain (W303 pdr1Δ pdr3Δ background), plasmid pRS316 with TDH3 promoter and CYC1 terminator
- assay.protocol: Growth inhibition of humanized yeast strain expressing SCD5 as sole desaturase
- Format: cell-based
- conditions.used: humanized yeast strain expressing SCD5
Rule: SCD5 % Max Inhibition of 70% or more gives TRUE; anything lower gives FALSE.

// below: answered compounds
compound	category
CC(C)c1ccc(C(=O)N2CCC(c3nc(N4CC5(CCCO5)C4)no3)CC2)cc1 [Compound 336]	TRUE
Cc1nn(C)c2cc(-c3nsc(C4CCN(C(=O)CNC(=O)c5ccccn5)CC4)n3)ccc12 [Compound 232]	FALSE
COc1ccnc(C(=O)NCC(=O)N2CCC(c3nc(-c4ccc5c(C)nn(C)c5c4)no3)CC2)c1 [Compound 150]	TRUE
Cc1nn(C)c2cc(-c3noc(N4CCN(C(=O)c5cc(F)ccc5C(F)(F)F)CC4)n3)ccc12 [Compound 293]	FALSE
Cn1c(=O)n(C)c2cc(-c3noc(C4CCN(C(=O)[C@@H](CO)NC(=O)c5ccccc5)CC4)n3)ccc21 [Compound 214]	TRUE

Confirm if SCD5 % Max Inhibition reported for the compound COc1ccc(-c2noc(C3CCN(C(=O)CNC(=O)N4CCCCC4)CC3)n2)cc1OC [Compound 143] is 70% or above.
TRUE

----------
- test.system: SCD5 (Homo sapiens)
- Construct: host or cells: S. cerevisiae ole1Δ strain (W303 pdr1Δ pdr3Δ background), plasmid pRS316 with TDH3 promoter and CYC1 terminator
- Sequence (Q86SK9 1-330): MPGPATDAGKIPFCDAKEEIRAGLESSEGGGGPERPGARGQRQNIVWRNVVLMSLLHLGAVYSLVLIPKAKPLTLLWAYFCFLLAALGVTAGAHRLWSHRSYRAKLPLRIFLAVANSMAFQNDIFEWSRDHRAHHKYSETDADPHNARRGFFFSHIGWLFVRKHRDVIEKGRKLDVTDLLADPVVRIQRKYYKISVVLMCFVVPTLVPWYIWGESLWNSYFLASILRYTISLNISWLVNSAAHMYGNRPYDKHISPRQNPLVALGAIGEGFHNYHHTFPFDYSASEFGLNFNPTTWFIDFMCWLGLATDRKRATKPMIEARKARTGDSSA
- assay.protocol: Growth inhibition of humanized yeast strain expressing SCD5 as sole desaturase
- Format: cell-based
- conditions.used: humanized yeast strain expressing SCD5
recorded.metric: SCD5 % Max Inhibition (%)
Give just the numeric value; % need not be written.

In the examples that follow, each entry is paired with its recorded SCD5 % Max Inhibition.
compound	SCD5 % Max Inhibition / %
COc1ccc(-c2noc(C3CCN(C(=O)[C@H](NC(=O)c4ccccc4)C4CC4)CC3)n2)cc1OC	19.31
Cc1cccc(-c2nc(C3CCN(C(=O)C4CC(=O)N(c5ccc(C)c(C)c5)C4)CC3)no2)c1 (stereo not drawn)	6.59
COc1ccc(-c2noc(C3CCN(C(=O)C(C)NC(=O)c4ccccc4)CC3)n2)cc1OC (stereo not drawn)	79.98
Cc1nn(C)c2nc(-c3noc(C4CCN(C(=O)CNC(=O)c5ccccc5)CC4)n3)ccc12	77.85
CCN1C(=O)COc2ccc(-c3nc(C(C)c4ccccc4)no3)cc21 (stereo not drawn)	28.51

Documented SCD5 % Max Inhibition of Cc1nn(C)c2cc(-c3noc(C4CCN(C(=O)c5cc(F)ccc5C(F)(F)F)CC4)n3)ccc12 : 10.2

Documented SCD5 % Max Inhibition of Cc1nn(C)c2cc(-c3noc(C4CCN(C(=O)C5CC(=O)N(CC6CC6)C5)CC4)n3)ccc12 (stereo not drawn) : 66.96

Documented SCD5 % Max Inhibition of CC(C)n1ncc2ccc(-c3noc(N4CCN(C(=O)c5ccccc5Cl)CC4)n3)cc21 : 2.22

Documented SCD5 % Max Inhibition of COc1ccc(-c2noc(C3CCN(C(=O)[C@@H](C)NC(=O)c4ccccc4)CC3)n2)cc1OC (single isomer, unassigned) : 57.19

----------
- Tested on: yeast strains expressing the human ApoE4
- assay.protocol: Yeast ApoE4 toxicity rescue assay (OD600 growth)
- conditions.used: 24 h, read-out: ApoE4 Emax
Mark 1.0 only when Emax stays strictly below 500%. Values equal to the cut-off are 0.0.

// below: answered compounds
compound	test.system	category
Cc1ccc(-c2noc(C3CCN(C(=O)[C@H]4CC(=O)N(c5ccc(C)c(C)c5)C4)CC3)n2)cc1 (single isomer, unassigned)	yeast strains expressing the human ApoE4	1.0
CCOc1ccc(-c2noc(C3CCN(C(=O)c4cnc(-c5ccccc5)[nH]4)CC3)n2)cc1OC	yeast strains expressing the human ApoE4	0.0
COc1ccc(-c2noc(C3CCN(C(=O)[C@H]4CC(=O)N(c5ccc(C)c(C)c5)C4)CC3)n2)cc1OC (single isomer, unassigned)	yeast strains expressing the human ApoE4	1.0

Does this compound meet the criterion Emax < 500%? COc1ccc(-c2noc(C3CCN(C(=O)CNC(=O)c4ccc(Cl)cc4)CC3)n2)cc1OC
0.0

Does this compound meet the criterion Emax < 500%? Cc1ccc(N2CC(C(=O)N3CCC(c4nc(-c5ccccc5)no4)CC3)CC2=O)cc1C (stereo not drawn)
1.0

Does this compound meet the criterion Emax < 500%? CCOc1ccc(-c2noc(C3CCN(C(=O)N4CCCCC4)CC3)n2)cc1OC
1.0

Does this compound meet the criterion Emax < 500%? Cc1cccc(-c2noc(C3CCN(C(=O)C4CC(=O)N(c5ccc(C)c(C)c5)C4)CC3)n2)c1 (stereo not drawn)
1.0

Does this compound meet the criterion Emax < 500%? O=C(NC1CC1c1ccccc1)N1CCC(c2nc(-c3ccc4ccccc4n3)no2)CC1 (stereo not drawn)
1.0

Does this compound meet the criterion Emax < 500%? CCOc1ccc(-c2noc(C3CCN(C(=O)[C@H]4CC(=O)N(c5ccccc5)C4)CC3)n2)cc1OC
0.0
